- System: RPMI-8226 leukemia
- Test summary: NCI tumour cell line growth inhibition, 48 h
Measured TGI, listed per entry for reference.

>  <Compound>
Cc1c(C)c2c(c(C)c1NC(=O)/C=C\C(=O)O)CCC(C)(CCCC(C)CCCC(C)CCCC(C)C)O2 (stereo not drawn)

>  <TGI>
13.8 µM

$$$$
>  <Compound>
O=C(c1ccco1)C1CC(c2ccc3ccccc3c2O)=NN1 (stereo not drawn)

>  <TGI>
> 100 µM

$$$$
>  <Compound>
COc1cccc(C(=O)Nc2ccc(CN3CCc4nc5cc(OC)c(OC)cc5cc43)cc2)c1

>  <TGI>
24.3 µM

$$$$
>  <Compound>
Cc1nc(Cl)c2sc(=S)n(-c3ccc(F)cc3)c2n1

>  <TGI>
> 100 µM

$$$$
>  <Compound>
COC(=O)c1ccccc1/C=C1/Cc2cccc(C)c2C1=O

>  <TGI>
> 100 µM

$$$$
>  <Compound>
CC1(C)CC(=O)/C(=C/C2CCNC2=S)C(=O)N1 (stereo not drawn)

>  <TGI>
> 100 µM

$$$$

# input for lookup
Endpoint output: TGI of C=CCN1C(=O)CC1N(CC=C)S(=O)(=O)c1ccc(C)cc1 (stereo not drawn) . Value?
> 100 µM

====

- Test system: SF-268 CNS
- Test summary: NCI tumour cell line growth inhibition, 48 h
Measured GI50, listed per entry for reference.

Endpoint output: GI50 of `[C-]#[O+].[Cl][Sn]([Cl])[Cl].[Cl][Sn]([Cl])[Cl].[Pt].c1ccc([PH+](c2ccccc2)c2ccccc2)cc1.c1ccc([PH+](c2ccccc2)c2ccccc2)cc1` . Value?
23 µM

Endpoint output: GI50 of `COc1cc(-c2n/c(=C\c3c(O)[nH]c4ccc(Cl)cc34)cc3c2=Nc2ccccc2-3)cc(OC)c1OC` . Value?
1.6 µM

Endpoint output: GI50 of Cc1c(C)c2c(c(C)c1NC(=O)/C=C\C(=O)O)CCC(C)(CCCC(C)CCCC(C)CCCC(C)C)O2 (stereo not drawn) . Value?
1.67 µM

====

- System: MDA-MB-435
- Test summary: NCI tumour cell line growth inhibition, 48 h
Assay endpoint: TGI

>  <Compound>
CCNC(C)(C)C(SS)c1ccc(Br)cc1 (stereo unspecified)

>  <TGI>
> 100 µM

$$$$
>  <Compound>
Clc1cc(OCc2nn3c(Cc4ccccc4)nnc3s2)ccc1OCc1nn2c(Cc3ccccc3)nnc2s1

>  <TGI>
> 100 µM

$$$$

Endpoint output: TGI of `NC(=O)c1cc(-c2ccncc2)cc(-c2ccccc2)c1N` . Value?
> 25 µM

Endpoint output: TGI of `Oc1ccc(Cl)cc1-c1[nH]c(=S)nc(-c2ccccc2)c1Cl` . Value?
> 100 µM

Endpoint output: TGI of `COc1ccc(-c2nn(-c3ccc(NC(=O)c4ccc(Cl)c(C(F)(F)F)c4)cc3)cc2-c2ccncc2)cc1Cl` . Value?
> 100 µM

Endpoint output: TGI of `Cc1cccc2[nH]c3cc(O)cc(O)c3c(=O)c12` . Value?
> 10 µM

====

Measured TGI, listed per entry for reference.
- System: COLO 205 colon
- Test summary: NCI tumour cell line growth inhibition, 48 h

Example entries begin here.
>  <Molecule>
COC(=O)c1ccc(Oc2nc3ccccc3nc2-c2cccs2)cc1

>  <Experimental system>
COLO 205 colon

>  <TGI>
> 100 µM

$$$$
>  <Molecule>
NCCC(=O)N[C@H](Cc1cc(O)c(O)c(SCC(NC(=O)CC[C@H](N)C(=O)O)C(=O)NCC(=O)O)c1)C(=O)O (stereo partly drawn)

>  <Experimental system>
COLO 205 colon

>  <TGI>
> 50 µM

$$$$

Endpoint output: TGI of `O=c1cc(CO)n(CCc2c[nH]c3ccccc23)cc1O` . Value?
> 100 µM

====

- System: SK-MEL-5 melanoma
- Test summary: NCI tumour cell line growth inhibition, 48 h
Assay endpoint: TGI

Endpoint output: TGI of `N#CC(C#N)=Cc1c(-c2ccccc2)[nH]c2ccccc12` . Value?
12.8 µM

Endpoint output: TGI of CC(N=C(N)N)C(=O)O (stereo not given) . Value?
> 100 µM

Endpoint output: TGI of CNC(=S)N/N=C1\CC(c2ccccc2)Oc2ccccc21 (stereo not given) . Value?
> 100 µM

Endpoint output: TGI of `O=C1CSC(/C(=C/c2ccccc2)c2nc3ccccc3[nH]2)=N1` . Value?
38.3 µM

Endpoint output: TGI of CC(NC(=O)C(OC(=O)C(C)NC(=O)OC(C)(C)C)C(C)C)C(=O)OC(C(=O)O)C(C)C (stereo not given) . Value?
> 100 µM

Endpoint output: TGI of CC(C)(C)[Si](C)(C)OCC1CCC(n2cnc3c(=O)[nH]cnc32)O1 (stereo not given) . Value?
> 100 µM

Endpoint output: TGI of `Cc1cc(=O)n(-c2ccccc2)c(=O)o1` . Value?
> 100 µM

Endpoint output: TGI of `O=[N+]([O-])c1ccc(N=Nc2c(O)ccc3cc(S(=O)(=O)O)ccc23)cc1` . Value?
> 100 µM

Endpoint output: TGI of `C/C(=N/NC(=O)c1ccncc1)c1ccc(NC(=O)C(=O)Nn2c(=S)[nH]c3ccccc3c2=O)cc1` . Value?
> 100 µM

Endpoint output: TGI of C=C(C)C#CC(O)(C(=O)OC1CCN(C)CC1)C(C)C (stereo not given) . Value?
> 100 µM

Endpoint output: TGI of `Cc1cc(N2CCN(C)CC2)nc(NCc2cc(Nc3ccnc4cc(Cl)ccc34)ccc2F)n1` . Value?
2.75 µM

Endpoint output: TGI of `CCOc1cc(-c2nc3ccccn3c2/N=C/c2cc([N+](=O)[O-])cc([N+](=O)[O-])c2O)ccc1O` . Value?
> 100 µM

Endpoint output: TGI of O=S1CSCS1 (stereo not given) . Value?
> 100 µM

Endpoint output: TGI of CC1=CCC2(C#N)CCC1C2O (stereo not given) . Value?
> 100 µM

Endpoint output: TGI of `CC1=CC[C@@H]2C(C)(C)C(=O)CC[C@@]2(C)[C@@H]1COc1ccc2ccc(=O)oc2c1` . Value?
14.2 µM

====

Measured TGI, listed per entry for reference.
- Tested on: NCI-H460 lung
- Test summary: NCI tumour cell line growth inhibition, 48 h

Example entries begin here.
>  <Molecule>
Cc1cccc(-n2c(C)nc3ccc(NC4OC(CO)C(O)C(O)C4O)cc3c2=O)c1 (stereo not drawn)

>  <TGI>
> 100 µM

$$$$
>  <Molecule>
CN(CCC#N)c1ccc(/C=C(\C#N)c2cccc(C(F)(F)F)c2)cc1

>  <TGI>
> 100 µM

$$$$

Endpoint output: TGI of `CC1C2=C(CC(C)(C)CC2=O)NC2=C1C(=O)CC(C)(C)C2` . Value?
> 100 µM

====

Measured TGI, listed per entry for reference.
- System: HS 578T breast
- Test summary: NCI tumour cell line growth inhibition, 48 h

>  <Compound>
CN(CCC#N)c1ccc(/C=C(\C#N)c2cccc(C(F)(F)F)c2)cc1

>  <Assay endpoint>
TGI

>  <Assay value>
> 100 µM

$$$$
>  <Compound>
CCOC(=O)[C@@H]1C[C@H]1c1ccc(O)c(O)c1

>  <Assay endpoint>
TGI

>  <Assay value>
> 100 µM

$$$$
>  <Compound>
CCC(C)C(C(=O)N/N=C1/SCC(=O)N1C)C(=O)N/N=C1/SCC(=O)N1C (stereo not drawn)

>  <Assay endpoint>
TGI

>  <Assay value>
> 100 µM

$$$$
>  <Compound>
CCC[C@H](O)[C@@H](CNc1cc(NC(C)=O)nc(NC(C)=O)n1)N(Cc1ccccc1)Cc1ccccc1

>  <Assay endpoint>
TGI

>  <Assay value>
> 100 µM

$$$$

Form field - read-out: TGI; system: HS 578T breast; submitted item: Oc1c(C(Nc2cccc3ccccc23)c2ccccc2)ccc2cccnc12 (stereo not drawn)
> 100 µM

Form field - read-out: TGI; system: HS 578T breast; submitted item: `O=c1oc2cc(N=Cc3ccccc3Cl)ccc2c2ccccc12`
> 100 µM

Form field - read-out: TGI; system: HS 578T breast; submitted item: CCCCC1Cc2ccccc2-c2n1c1ccccc1[n+]2C (stereo not drawn)
81.5 µM

Form field - read-out: TGI; system: HS 578T breast; submitted item: `Cc1ccc(S(=O)(=O)OC[C@]23CCC(C)(C)C[C@H]2C2=CC[C@@H]4[C@@]5(C)CCCNC(C)(C)[C@@H]5CC[C@@]4(C)[C@]2(C)CC3)cc1`
4.08 µM

====

Measured GI50, listed per entry for reference.
- System: HOP-92 NSCLC
- Test summary: NCI tumour cell line growth inhibition, 48 h

Example entries begin here.
>  <Test smiles>
Cc1csc(/C=N/NC(=O)c2nnn(-c3ccnc4c(C(F)(F)F)cccc34)c2C)c1

>  <Assay endpoint>
GI50

>  <Assay value>
55800 nM

$$$$
>  <Test smiles>
Cc1oc2nc[nH]c(=O)c2c1C(=O)/C=C/c1ccc(Cl)cc1

>  <Assay endpoint>
GI50

>  <Assay value>
1470 nM

$$$$
>  <Test smiles>
CN(C)c1ccc2c(c1)CN1C(=O)c3ccccc3C1=N2

>  <Assay endpoint>
GI50

>  <Assay value>
> 100000 nM

$$$$
>  <Test smiles>
O=[N+]([O-])c1cc([N+](=O)[O-])c(Cl)c(Cl)c1Cl

>  <Assay endpoint>
GI50

>  <Assay value>
1680 nM

$$$$
>  <Test smiles>
N#CC(C#N)=Cc1c(-c2ccccc2)[nH]c2ccccc12

>  <Assay endpoint>
GI50

>  <Assay value>
5600 nM

$$$$

# input for lookup
Endpoint output: GI50 of `CN1CCN(CCCOc2cccc3nc(Nc4ccc(Cl)c(F)c4)ccc23)CC1` . Value?
1330 nM
